We begin with a simple list: items and their reported inhibition at 1 µM.
# target: ROCK2 protein (Homo sapiens, UniProt O75116)
# Sequence (O75116 whole entry): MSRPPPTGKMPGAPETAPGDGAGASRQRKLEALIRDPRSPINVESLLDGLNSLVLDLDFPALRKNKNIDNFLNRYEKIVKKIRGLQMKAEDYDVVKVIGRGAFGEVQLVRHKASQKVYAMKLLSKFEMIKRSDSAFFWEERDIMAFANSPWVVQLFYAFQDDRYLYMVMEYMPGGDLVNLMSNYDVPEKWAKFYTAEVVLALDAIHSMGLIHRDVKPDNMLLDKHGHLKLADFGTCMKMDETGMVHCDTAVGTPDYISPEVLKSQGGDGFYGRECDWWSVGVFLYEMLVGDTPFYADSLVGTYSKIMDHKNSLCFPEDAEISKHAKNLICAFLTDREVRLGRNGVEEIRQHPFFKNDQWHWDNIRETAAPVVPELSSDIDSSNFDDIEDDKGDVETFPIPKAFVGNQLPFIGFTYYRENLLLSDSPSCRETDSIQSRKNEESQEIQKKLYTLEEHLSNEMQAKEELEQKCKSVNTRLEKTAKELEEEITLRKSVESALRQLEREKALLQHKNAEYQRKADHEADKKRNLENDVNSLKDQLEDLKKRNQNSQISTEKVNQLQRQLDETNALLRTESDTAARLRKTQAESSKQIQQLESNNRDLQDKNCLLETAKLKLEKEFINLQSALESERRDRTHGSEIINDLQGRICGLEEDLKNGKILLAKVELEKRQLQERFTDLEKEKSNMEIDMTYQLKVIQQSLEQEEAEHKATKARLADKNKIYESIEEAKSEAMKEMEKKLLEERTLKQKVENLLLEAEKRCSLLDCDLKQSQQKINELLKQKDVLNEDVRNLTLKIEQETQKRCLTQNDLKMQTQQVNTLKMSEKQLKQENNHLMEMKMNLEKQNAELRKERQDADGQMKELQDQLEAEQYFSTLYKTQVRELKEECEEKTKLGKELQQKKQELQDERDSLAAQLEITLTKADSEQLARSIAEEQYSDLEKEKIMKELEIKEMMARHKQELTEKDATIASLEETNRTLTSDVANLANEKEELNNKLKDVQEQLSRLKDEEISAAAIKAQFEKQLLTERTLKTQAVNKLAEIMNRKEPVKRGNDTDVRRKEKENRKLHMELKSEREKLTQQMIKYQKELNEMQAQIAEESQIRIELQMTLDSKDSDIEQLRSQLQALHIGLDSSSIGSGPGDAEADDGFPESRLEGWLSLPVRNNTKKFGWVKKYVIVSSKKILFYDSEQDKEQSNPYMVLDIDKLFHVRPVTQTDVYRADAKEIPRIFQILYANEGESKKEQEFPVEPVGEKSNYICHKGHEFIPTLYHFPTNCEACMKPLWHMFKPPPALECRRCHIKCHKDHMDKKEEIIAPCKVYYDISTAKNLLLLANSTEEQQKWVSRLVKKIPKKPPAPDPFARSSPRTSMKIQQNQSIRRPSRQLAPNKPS
# assayProcedure: Degradation inducing activity of ROCK2 protein in HUVEC cells, Western blotting (Simple Western JESS)
# Format: cell-based
# Parameters: endogenous in cells; host or cells: HUVEC (ATCC CRL-1730)
# statedConditions: HUVEC, 24 h, degradation rate at 1 µM

Would you please look over these solved cases?
compound="COC[C@H]1CN[C@H](C)CN1CC(=O)N1CC(C)(C)c2nc(CN(C)CCOCCOCCOCCNC[C@@H](C(=O)Nc3ccc4cnccc4c3)c3ccccc3)c(Cc3ccc(F)cc3)cc21 [Example 38]" measurementname="inhibition at 1 µM" valuereported="< 25%"
compound="COC[C@H]1CN[C@H](C)CN1CC(=O)N1CC(C)(C)c2nc(CN(C)CCOCCOCCOCCOCCN[C@H](Cc3cccc(F)c3)C(=O)Nc3ccc(-c4ccncc4)cc3)c(Cc3ccc(F)cc3)cc21 [Example 32]" measurementname="inhibition at 1 µM" valuereported="< 25%"
compound="COC[C@H]1CN[C@H](C)CN1CC(=O)N1CC(C)(C)c2ncc(Cc3ccccc3OCCOCCOCCOCCN[C@H](Cc3cccc(F)c3)C(=O)Nc3ccc(-c4ccncc4)cc3)cc21 [Example 73]" measurementname="inhibition at 1 µM" valuereported="< 25%"
compound="COC[C@H]1CN[C@H](C)CN1CC(=O)N1CC(C)(C)c2ncc(Cc3cccc(OCCOCCOCCOCCOCCOCCN[C@H](Cc4cccc(F)c4)C(=O)Nc4ccc(-c5ccncc5)cc4)c3)cc21 [Example 54]" measurementname="inhibition at 1 µM" valuereported="≥ 75%"

// moving on: another record for inhibition at 1 µM
## Input Please provide the recorded inhibition at 1 µM for COC[C@H]1CN[C@H](C)CN1CC(=O)N1CC(C)(C)c2ncc(Cc3ccccc3OCCOCCOCCN[C@H](Cc3cccc(F)c3)C(=O)Nc3ccc(-c4ccncc4)cc3)cc21 [Example 72] , tested on ROCK2 protein (Homo sapiens, UniProt O75116).
## Output < 25%

----------
# target: ROCK2 protein (Homo sapiens)
# assayProcedure: Degradation inducing activity of ROCK2 protein in HUVEC cells, Western blotting (Simple Western JESS)
# Type: cell-based
# Design: endogenous in cells; host or cells: HUVEC (ATCC CRL-1730)
# statedConditions: HUVEC, 24 h, degradation rate at 10 µM
We begin with a simple list: items and their reported inhibition at 10 µM.

mol=COC[C@H]1CN[C@H](C)CN1CC(=O)N1CC(C)(C)c2nc(CN(C)CCOCCOCCOCCOCCOCCOCCNC[C@@H](C(=O)Nc3ccc4cnccc4c3)c3ccccc3)c(Cc3ccc(F)cc3)cc21 target="ROCK2 protein (Homo sapiens)" valuereported="≥ 75%"
mol=COC[C@H]1CN[C@H](C)CN1CC(=O)N1CC(C)(C)c2nc(CN(C)CCOCCN[C@H](C)c3ccc(C(=O)Nc4ccncc4)cc3)c(Cc3ccc(F)cc3)cc21 target="ROCK2 protein (Homo sapiens)" valuereported="≥ 75%"
mol=COC[C@H]1CN[C@H](C)CN1CC(=O)N1CC(C)(C)c2ncc(Cc3ccccc3OCCOCCN[C@H](Cc3cccc(F)c3)C(=O)Nc3ccc(-c4ccncc4)cc3)cc21 target="ROCK2 protein (Homo sapiens)" valuereported="< 25%"
mol=C[C@@H]1CN(CC(=O)N2CC(C)(C)c3ncc(Cc4ccc(F)cc4)cc32)[C@@H](CN(C)CCOCCN[C@H](C)c2ccc(C(=O)Nc3ccncc3)cc2)CN1 target="ROCK2 protein (Homo sapiens)" valuereported="≥ 75%"

## Input Which inhibition at 10 µM reading was recorded for the compound `COC[C@H]1CN[C@H](C)CN1CC(=O)N1CC(C)(C)c2ncc(Cc3cccc(OCCOCCOCCOCCNC[C@@H](C(=O)Nc4ccc5cnccc5c4)c4ccccc4)c3)cc21` ?
## Output ≥ 75%

----------
# target: ROCK2 protein (Homo sapiens, UniProt O75116)
# assayProcedure: Degradation inducing activity of ROCK2 protein in HUVEC cells, Western blotting (Simple Western JESS)
# Type: cell-based
# Parameters: endogenous in cells; host or cells: HUVEC (ATCC CRL-1730)
# statedConditions: HUVEC, 24 h, degradation rate at 1 µM
measurementName: inhibition at 1 µM

## Input Which inhibition at 1 µM reading was recorded for the molecule C[C@@H]1CN(CC(=O)N2CC(C)(C)c3ncc(Cc4ccc(F)cc4)cc32)[C@@H](CN(C)CCOCCOCCN[C@H](Cc2cccc(F)c2)C(=O)Nc2ccc(-c3ccncc3)cc2)CN1 [Example 9] ?
## Output < 25%

## Input Which inhibition at 1 µM reading was recorded for the molecule C[C@@H]1CN(CC(=O)N2CC(C)(C)c3ncc(Cc4ccc(F)cc4)cc32)[C@@H](CN(C)CCOCCOCCOCCOCCOCCOCCOCCN[C@H](C)c2ccc(C(=O)Nc3ccncc3)cc2)CN1 [Example 7] ?
## Output 50 to 75%

## Input Which inhibition at 1 µM reading was recorded for the molecule C[C@@H]1CN(CC(=O)N2CC(C)(C)c3ncc(Cc4ccc(F)cc4)cc32)[C@@H](CN(C)CCOCCOCCOCCOCCOCCOCCNC[C@@H](C(=O)Nc2ccc3cnccc3c2)c2ccccc2)CN1 [Example 20] ?
## Output 50 to 75%

## Input Which inhibition at 1 µM reading was recorded for the molecule COC[C@H]1CN[C@H](C)CN1CC(=O)N1CC(C)(C)c2ncc(Cc3cccc(OCCOCCOCCOCCOCCN[C@H](Cc4cccc(F)c4)C(=O)Nc4ccc(-c5ccncc5)cc4)c3)cc21 [Example 53] ?
## Output < 25%

## Input Which inhibition at 1 µM reading was recorded for the molecule C[C@@H]1CN(CC(=O)N2CC(C)(C)c3ncc(Cc4ccc(F)cc4)cc32)[C@@H](CN(C)CCOCCOCCOCCOCCOCCNC[C@@H](C(=O)Nc2ccc3cnccc3c2)c2ccccc2)CN1 [Example 19] ?
## Output 25 to 50%

## Input Which inhibition at 1 µM reading was recorded for the molecule COC[C@H]1CN[C@H](C)CN1CC(=O)N1CC(C)(C)c2nc(CN(C)CCOCCOCCOCCOCCOCCOCCOCCN[C@H](Cc3cccc(F)c3)C(=O)Nc3ccc(-c4ccncc4)cc3)c(Cc3ccc(F)cc3)cc21 [Example 35] ?
## Output 50 to 75%

## Input Which inhibition at 1 µM reading was recorded for the molecule COC[C@H]1CN[C@H](C)CN1CC(=O)N1CC(C)(C)c2nc(CN(C)CCOCCOCCOCCOCCOCCOCCOCCNC[C@@H](C(=O)Nc3ccc4cnccc4c3)c3ccccc3)c(Cc3ccc(F)cc3)cc21 [Example 42] ?
## Output 50 to 75%

## Input Which inhibition at 1 µM reading was recorded for the molecule COC[C@H]1CN[C@H](C)CN1CC(=O)N1CC(C)(C)c2ncc(Cc3ccccc3OCCOCCN[C@H](C)c3ccc(C(=O)Nc4ccncc4)cc3)cc21 [Example 64] ?
## Output < 25%

## Input Which inhibition at 1 µM reading was recorded for the molecule C[C@@H]1CN(CC(=O)N2CC(C)(C)c3ncc(Cc4ccc(F)cc4)cc32)[C@@H](CN(C)CCOCCOCCOCCOCCOCCOCCOCCN[C@H](Cc2cccc(F)c2)C(=O)Nc2ccc(-c3ccncc3)cc2)CN1 [Example 14] ?
## Output 25 to 50%

## Input Which inhibition at 1 µM reading was recorded for the molecule COC[C@H]1CN[C@H](C)CN1CC(=O)N1CC(C)(C)c2ncc(Cc3ccccc3OCCOCCOCCOCCOCCOCCN[C@H](Cc3cccc(F)c3)C(=O)Nc3ccc(-c4ccncc4)cc3)cc21 [Example 75] ?
## Output < 25%

----------
We begin with a simple list: items and their reported inhibition at 0.01 µM.
# target: human ALK kinase (Homo sapiens, UniProt Q9UM73)
# Construct: GST (N); purchased Carna Biosciences, Inc; host or cells: baculovirus expression system
# Sequence (Q9UM73 1058-1620): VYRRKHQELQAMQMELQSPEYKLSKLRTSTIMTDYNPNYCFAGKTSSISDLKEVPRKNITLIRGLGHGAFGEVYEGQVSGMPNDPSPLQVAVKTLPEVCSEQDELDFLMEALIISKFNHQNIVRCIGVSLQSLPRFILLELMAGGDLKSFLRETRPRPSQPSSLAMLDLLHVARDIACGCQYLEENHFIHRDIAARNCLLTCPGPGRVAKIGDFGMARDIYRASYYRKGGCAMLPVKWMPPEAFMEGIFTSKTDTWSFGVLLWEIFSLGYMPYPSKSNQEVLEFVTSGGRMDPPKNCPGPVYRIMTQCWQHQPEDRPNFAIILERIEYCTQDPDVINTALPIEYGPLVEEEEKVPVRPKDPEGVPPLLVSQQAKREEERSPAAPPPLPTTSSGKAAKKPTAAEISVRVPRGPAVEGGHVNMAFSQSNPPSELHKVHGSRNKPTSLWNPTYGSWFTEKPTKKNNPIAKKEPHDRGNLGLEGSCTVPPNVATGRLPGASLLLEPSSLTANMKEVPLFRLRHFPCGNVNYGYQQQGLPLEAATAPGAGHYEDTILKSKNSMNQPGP
# assayProcedure: ALK kinase inhibitory activity, mobility shift assay (MSA, Carna Biosciences)
# Assay type: biochemical
# statedConditions: inhibition rate at 10 nM

Would you please look over these solved cases?
compound="Cc1cc(Nc2ncc(Cl)c(Nc3ccccc3S(=O)(=O)C(C)C)n2)c(OC(C)C)cc1C1CCN(CC(=O)NCCOCCN(C)C[C@H]2CN[C@H](C)CN2CC(=O)N2CC(C)(C)c3ncc(Cc4ccc(F)cc4)cc32)CC1 [Example 85]" valuereported="50 to 75%"
compound="COC[C@H]1CN[C@H](C)CN1CC(=O)N1CC(C)(C)c2ncc(Cc3ccccc3OCCOCCOCCOCCOCCNC(=O)CN3CCC(c4cc(OC(C)C)c(Nc5ncc(Cl)c(Nc6ccccc6S(=O)(=O)C(C)C)n5)cc4C)CC3)cc21 [Example 100]" valuereported="≥ 75%"
compound="Cc1cc(Nc2ncc(Cl)c(Nc3ccccc3S(=O)(=O)C(C)C)n2)c(OC(C)C)cc1C1CCN(CC(=O)NCCOCCOCCOCCOCCOCCN(C)C[C@H]2CN[C@H](C)CN2CC(=O)N2CC(C)(C)c3ncc(Cc4ccc(F)cc4)cc32)CC1 [Example 89]" valuereported="50 to 75%"
compound="COC[C@H]1CN[C@H](C)CN1CC(=O)N1CC(C)(C)c2ncc(Cc3cccc(OCCOCCOCCOCCOCCOCCNC(=O)CN4CCC(c5cc(OC(C)C)c(Nc6ncc(Cl)c(Nc7ccccc7S(=O)(=O)C(C)C)n6)cc5C)CC4)c3)cc21 [Example 107]" valuereported="≥ 75%"
compound="COC[C@H]1CN[C@H](C)CN1CC(=O)N1CC(C)(C)c2nc(CN(C)CCOCCOCCOCCOCCOCCNC(=O)CN3CCC(c4cc(OC(C)C)c(Nc5ncc(Cl)c(Nc6ccccc6S(=O)(=O)C(C)C)n5)cc4C)CC3)c(Cc3ccc(F)cc3)cc21 [Example 95]" valuereported="≥ 75%"

// moving on: another record for inhibition at 0.01 µM
## Input Which inhibition at 0.01 µM reading was recorded for the compound COC[C@H]1CN[C@H](C)CN1CC(=O)N1CC(C)(C)c2nc(CN(C)CCOCCOCCNC(=O)CN3CCC(c4cc(OC(C)C)c(Nc5ncc(Cl)c(Nc6ccccc6S(=O)(=O)C(C)C)n5)cc4C)CC3)c(Cc3ccc(F)cc3)cc21 [Example 92] ?
## Output ≥ 75%
